System: SW-620
assay_explanation: Inhibition of human colon carcinoma SW-620 cell proliferation
Format: functional, cell-based
readout: IC50 (µM)
Express the result in µM but write the number alone.

> print(dat)
                               query.smiles  experimental.result
1  CCNC(=O)Nc1nc2nc(NCCCCN(CC)CC)ncc2cc1-c1c(Cl)cccc1Cl                 2.76

Query: For the molecule shown here, CCNC(=O)Nc1nc2nc(NCCCN3CCN(C)CC3)ncc2cc1-c1c(Cl)cccc1Cl , give the reported IC50.
Response: 2.5

Query: Input CCN(CC)CCCCNc1ncc2cc(-c3c(Cl)cccc3Cl)c(NC(=O)Nc3ccccc3)nc2n1
Response: 2.6

Query: Input CN1CCN(CCCNc2ncc3cc(-c4c(Cl)cccc4Cl)c(NC(=O)Nc4ccccc4)nc3n2)CC1
Response: 4.1
